Tested on: Candida albicans
Conditions: 32 ug/mL
Description: Antifungal activity against Candida albicans ATCC 90028 (CO-ADD:FG_001); MIC in YNB media using NBS plates, by OD630
Entries with a potency or affinity are not part of this list.
quantityName: Inhibition (%)
Use % as the unit, but write only the number.

Before answering, review these 3 worked examples.
COc1ccc2c(c1)CCC(=Cc1ccc(OC)nc1)C2=O ... 3.72
COc1ccc2c(c1)C(=O)C(=Cc1ccoc1)CC2 ... 8.42
COc1ccc2c(c1)CCC(=Cc1ccco1)C2=O ... 4.52

Q: Please look up its Inhibition: COc1ccc2c(c1)CCC(=Cc1cccnc1)C2=O
Ans: 2.52

Q: Would you mind doing COc1cc2c(cc1OC)C(=O)C(=Cc1ccco1)CC2 as well?
Ans: 36.5

---

System: Klebsiella pneumoniae
Details: Concentration 32 ug.mL-1; ASSAY_TEST Inhibition of Bacterial Growth; detection method Absorption (OD600); MEDIA CAMHB; plate type 384well; NBS; CORNING #3640; time 18 hr
Description: Antibacterial activity against Klebsiella pneumoniae MDR ATCC 70063 (CO-ADD:GN_003); MIC in CAMBH media using NBS plates, by OD(600)
Entries with a potency or affinity are not part of this list.
This listing pairs compounds with measured Inhibition.
Use % as the unit, but write only the number.

Before answering, review these 5 worked examples.
COc1ccc2c(c1)C(=O)C(=Cc1cncc(Br)c1)CC2 ... 11.33
COc1cccc2c1CCC(=Cc1ccoc1)C2=O ... 11.44
COc1ccc2c(c1)CCC(=Cc1cccnc1)C2=O ... 16.02
COc1ccc2c(c1)C(=O)C(=Cc1cnccc1OC)CC2 ... 13.46
COc1ccc2c(c1)C(=O)C(=Cc1ccccn1)CC2 ... 11.4

Let's switch to this compound now.
Q: Please look up its Inhibition: COc1ccc2c(c1)CCC(=Cc1cncc(Br)c1)C2=O
Ans: 10.09

---

System: Cryptococcus neoformans
Details: Concentration 32 ug.mL-1; ASSAY_TEST Inhibition of Fungal Growth; detection method Resazurin; Absorption (OD600-OD570); plate type 384well; NBS; CORNING #3640
Description: Antifungal activity against Cryptococcus neoformans H99 ATCC 208821 (CO-ADD:FG_002); MIC in YNB media using NBS plates, by Resazurin OD(600-570)
Results with a measured potency or affinity are listed apart.
quantityName: Inhibition (%)
Use % as the unit, but write only the number.

Before answering, review these 2 worked examples.
COc1ccc2c(c1)CCC(=Cc1ccncc1)C2=O ... -80.91
COc1ccc2c(c1)C(=O)C(=Cc1cccnc1)CC2 ... 20.35

Let's switch to this molecule now.
Q: Notebook entry, Cryptococcus neoformans assay: Inhibition of COc1cccc2c1CCC(=Cc1ccoc1)C2=O = ?
Ans: -46.61

---

Tested on: Cryptococcus neoformans
Settings: Concentration 32 ug.mL-1; ASSAY_TEST Inhibition of Fungal Growth; detection method Resazurin; Absorption (OD600-OD570); plate type 384well; NBS; CORNING #3640
Results with a measured potency or affinity are listed apart.
Param label: returns rule met when Inhibition < -30%, returns rule not met otherwise, including exact equality.

Look over these answered cases.
COc1ccc2c(c1)C(=O)C(=Cc1cncc(Br)c1)CC2 ... rule not met
COc1ccc2c(c1)C(=O)C(=Cc1cccnc1OC)CC2 ... rule met
COc1ccc2c(c1)CCC(=Cc1ccco1)C2=O ... rule met
COc1ccc2c(c1)C(=O)C(=Cc1cnccc1OC)CC2 ... rule not met
COc1ccc2c(c1)C(=O)C(=Cc1cccnc1Br)CC2 ... rule not met

Q: Lab note: Inhibition threshold -30%. Does this compound come in strictly under it? COc1ccc2c(c1)C(=O)C(=Cc1cccnc1Cl)CC2.Cl
Ans: rule met

Q: Would you mind doing COc1ccc2c(c1)CCC(=Cc1cnccc1OC)C2=O as well?
Ans: rule met
